These data points were gathered from patent US10987357B2.

- Assay Text: physchem
- Experimental Parameters: final solution, 10 mg/mL
Value Type: pH of final solution

> print(dat)
                                   molecule  measured
1  COc1c(N2CCNC(C)C2)c(F)cc2c(=O)c(C(=O)O)cn(C3CC3)c12 (stereo not shown)       3.0
2  CCn1cc(C(=O)O)c(=O)c2cc(F)c(N3CCNC(C)C3)c(F)c21 (stereo not shown)       4.2
3  C[C@@H]1CN(c2c(F)c(N)c3c(=O)c(C(=O)O)cn(C4CC4)c3c2F)C[C@H](C)N1       1.5
4  CN1CCN(c2c(F)cc3c(=O)c(C(=O)O)cn4c3c2OCN4C)CC1       1.5
5  N[C@@H]1[C@H]2CN(c3nc4c(cc3F)c(=O)c(C(=O)O)cn4-c3ccc(F)cc3F)C[C@@H]12       4.2
6  NC1CCN(c2nc3c(cc2F)c(=O)c(C(=O)O)cn3-c2ccc(F)cc2F)C1 (stereo not shown)       1.5
7  C[C@@H]1CN(c2c(F)c(F)c3c(=O)c(C(=O)O)cn(C4CC4)c3c2F)C[C@H](C)N1       1.7
